The reported numbers originate from patent US20230331827A1.

For each record, write down the corresponding IC50.
# system.tested: T1, human Kv1.1 (huKv1.1) (Homo sapiens, UniProt Q09470)
# T1 construct: expressed in transfected cells; host or cells: Freestyle CHO-S
# method.summary: QPatch automated patch-clamp, CHO-S cells expressing huKv1.1 (Examples 20-21)
# Type: cell-based
# applied.conditions: four-point curves of FIG. 33, Table E20
# Description: 1. The effect of these KnotBodies on cells expressing human Kv1.1 (huKv1.1) and Kv1.3 (huKv1.3) channels was assessed using QPatch automated patch-clamp platform (Sophion). […] For the testing of Kv1.1 and Kv1.3, CHO-S expressing huKv1.1 (described above) or CHO cells stably expressing huKv1.3 (Charles River Lab) were analysed using the QPatch electrophysiology assay in the presence or absence of the KnotBody fusions. […]
Use nM as the unit, but write only the number.

(Q) # input molecule: KB_A12_ADWX1 short: truncated ADWX-1 in VL CDR2 of KB_A12, IgG (antibody, V domains shown) VH: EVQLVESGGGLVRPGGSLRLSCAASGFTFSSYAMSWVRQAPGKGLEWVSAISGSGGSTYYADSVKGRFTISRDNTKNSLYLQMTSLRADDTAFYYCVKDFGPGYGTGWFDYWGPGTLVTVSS VL: QSVLTQPPSVSEAPRQRVTITCSGSSSNIGNNAVNWYQQLPGKAPKLLIYAAGRVKCKHSRQCLKPCKDAGMRFGKCTNGKCHCTPKANSGVSDRFSAAKSGTSASLAINGLRSEDEADYYCAAWDDSLNGYVFGTGTKLTVLG ; wanted: its IC50
(A) 1400

(Q) What value of measured IC50 is listed for KB_A12_HsTx1 (antibody, V domains shown) VH: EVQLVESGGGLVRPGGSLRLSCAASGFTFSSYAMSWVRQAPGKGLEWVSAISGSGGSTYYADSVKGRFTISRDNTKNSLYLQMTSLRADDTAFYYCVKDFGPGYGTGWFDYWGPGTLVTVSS VL: QSVLTQPPSVSEAPRQRVTITCSGSSSNIGNNAVNWYQQLPGKAPKLLIYAAGRASCRTPKDCADPCRKETGCPYGKCMNRKCKCNRCANSGVSDRFSAAKSGTSASLAINGLRSEDEADYYCAAWDDSLNGYVFGTGTKLTVLG ?
(A) 650
